Readings of PBM E-score for the listed sequences
# target or system: Vhr1 (UniProt P40522)
# Sequence: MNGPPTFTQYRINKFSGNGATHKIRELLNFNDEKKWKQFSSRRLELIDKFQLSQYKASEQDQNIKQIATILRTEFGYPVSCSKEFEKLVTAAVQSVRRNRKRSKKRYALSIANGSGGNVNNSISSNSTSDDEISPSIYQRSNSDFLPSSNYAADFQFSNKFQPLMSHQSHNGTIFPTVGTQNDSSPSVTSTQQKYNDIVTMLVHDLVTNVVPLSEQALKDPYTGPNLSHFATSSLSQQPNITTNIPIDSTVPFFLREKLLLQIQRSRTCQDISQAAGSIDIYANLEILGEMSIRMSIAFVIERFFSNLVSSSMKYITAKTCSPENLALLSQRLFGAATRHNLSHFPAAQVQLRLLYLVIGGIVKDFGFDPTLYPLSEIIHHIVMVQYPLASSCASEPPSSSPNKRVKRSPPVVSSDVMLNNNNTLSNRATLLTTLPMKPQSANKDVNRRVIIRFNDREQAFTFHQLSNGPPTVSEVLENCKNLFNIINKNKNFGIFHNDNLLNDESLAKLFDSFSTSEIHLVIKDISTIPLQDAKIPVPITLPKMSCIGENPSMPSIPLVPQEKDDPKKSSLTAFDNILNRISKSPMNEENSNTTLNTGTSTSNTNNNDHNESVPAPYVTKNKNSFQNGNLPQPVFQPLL
# assay overview: PBM E-score (8-mer binding enrichment) (E-score (-0.5 to 0.5)); higher = stronger / more preferred TF binding
# condition details: protein concentration: 200 nM; construct: GST-full length
The full ranking holds about 33,000 sequences; the median of “E-score (-0.5 to 0.5)” is about -0.012, and the highest 2% start at about 0.27. The entries come from a sample that favours the highest values as a whole.
The answer should be written as a number, with no unit following it.

Consider the following illustrative entries.
ATGGCTTC: 0.00791
AACTCCGC: -0.0635
GGGCTTAC: -0.00595
AACGGTCC: -0.263
TAGTCAGA: 0.258
AAGTGACA: 0.0587
AATGATCA: 0.0798
AGGGAGTA: 0.113
CGGGAGAC: -0.0366
CTGTCATA: 0.0334

Then there is this sequence:
Enquiry: Requested read-out PBM E-score, target or system Vhr1 (UniProt P40522), entry AGGTGTGC
Return: 0.163
